# System: mouse
# test_protocol: acute toxicity to mouse
# Type: in vivo
# protocol_conditions: 200 mg/kg; i.v.
reported_property: Acute toxicity to mouse

Please review the entries below; each comes with its answer.
| molecule | measurement_target | Acute toxicity to mouse |
| --- | --- | --- |
| CC(C)(N)C1CCN(c2c(F)cc3c(=O)c(C(=O)O)cn(C4CC4)c3c2F)C1 (centres unmarked) | mouse | 0/5 |
| CCNCC1CCN(c2c(F)cc3c(=O)c(C(=O)O)cn(C4CC4)c3c2F)C1 (centres unmarked) [Compound A, reference compound] | mouse | 3/5 |
| CNC(C)C1CCN(c2c(F)cc3c(=O)c(C(=O)O)cn(C4CC4)c3c2F)C1 (single isomer, unassigned) | mouse | 1/5 |
| CC(C)(N)C1CCN(c2nc3c(cc2F)c(=O)c(C(=O)O)cn3C2CC2)C1 (centres unmarked) | mouse | 1/5 |

Now consider a different molecule.
Give the reported Acute toxicity to mouse for CNCC1CCN(c2c(F)cc3c(=O)c(C(=O)O)cn(C4CC4)c3c2F)C1 (centres unmarked) [Compound B, reference compound] (system: mouse).
2/5

---

Exercise: state measured Cmax for each of the molecules provided.
# test_protocol: absorption after oral administration to rats
# Assay type: in vivo
# protocol_conditions: rat, serum, 20 mg/kg, 5 rats per group
Numbers only, in ng/mL.

As a guide, the following entries are already answered.
| molecule | recorded_number |
| --- | --- |
| CNCC1CCN(c2c(F)cc3c(=O)c(C(=O)O)cn(C4CC4)c3c2F)C1 (stereo not shown) [Compound B, reference compound] | 1370 |
| CNC(C)C1CCN(c2c(F)cc3c(=O)c(C(=O)O)cn(C4CC4)c3c2F)C1 (single isomer, unassigned) | 2210 |
| CC(C)(N)C1CCN(c2nc3c(cc2F)c(=O)c(C(=O)O)cn3C2CC2)C1 (stereo not shown) | 2140 |

Turning now to a further molecule:
Quick one: Cmax of CC(C)(N)C1CCN(c2c(F)cc3c(=O)c(C(=O)O)cn(C4CC4)c3c2F)C1 (stereo not shown) ?
2100

---

# Test system: Sh. flexneri, 2a5503
# test_protocol: antimicrobial activity, MIC, standard process of Japan Society of Chemotherapy
# Assay type: cell-based
reported_property: minimum growth inhibitory concentration (MIC)

Field: example entries. Status: answers known.
| molecule | result |
| --- | --- |
| CNC(C)C1CCN(c2c(F)cc3c(=O)c(C(=O)O)cn(C4CC4)c3c2F)C1 (single isomer, unassigned) [Example 7] | ≤ 0.05 µg/mL |
| CC(N)C1CCN(c2nc3c(cc2F)c(=O)c(C(=O)O)cn3C2CC2)C1 (stereo not drawn) [Example 19] | ≤ 0.05 µg/mL |
| CCC(N)C1CCN(c2c(F)cc3c(=O)c(C(=O)O)cn(C4CC4)c3c2F)C1 (stereo not drawn) [Example 22] | ≤ 0.05 µg/mL |

I would be grateful if you could provide minimum growth inhibitory concentration (MIC) for each of the following entries.
1. CCn1cc(C(=O)O)c(=O)c2cc(F)c(N3CCC(C(C)N)C3)c(F)c21 (single isomer, unassigned) [Example 4]
2. CC(N)C1CCN(c2c(F)cc3c(=O)c(C(=O)O)cn(C4CC4)c3c2F)C1 (single isomer, unassigned) [Example 2]
3. CC(N)C1CCN(c2nc3c(cc2F)c(=O)c(C(=O)O)cn3C2CC2)C1 (stereo not drawn) [Example 18]

1. ≤ 0.05 µg/mL
2. ≤ 0.05 µg/mL
3. ≤ 0.05 µg/mL
